A collection of variants and their measured fraction ligated
B1: F1*; the commonest letter at each place (parent)
chain: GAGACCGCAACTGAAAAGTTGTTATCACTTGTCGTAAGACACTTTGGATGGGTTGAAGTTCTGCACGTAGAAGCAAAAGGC

# Variants of: B1
# assay method text: fraction ligated after 30 min (ligated reads / total reads); higher = more ligase activity
# reported conditions: with F1*sub RNA substrate (template-directed ligation), 42 °C

[
  {
    "var": "C26G A37G",
    "fraction ligated": 0.762
  },
  {
    "var": "T43A T44A",
    "fraction ligated": 0.848
  },
  {
    "var": "C26T T43G",
    "fraction ligated": 0.79
  },
  {
    "var": "G31C G50C",
    "fraction ligated": 0.0327
  },
  {
    "var": "T35C G47T",
    "fraction ligated": 0.36
  }
]

Recorded fraction ligated of G34A A41G , please.
0.81

Recorded fraction ligated of C26A C40A , please.
0.755

Recorded fraction ligated of T35A G55C , please.
0.819
